- Tested on: Porcine atria myofibrils (atrial myosin ATPase)
- Assay Summary: Myofibril ATPase assay, porcine atria myofibrils
- Type: biochemical
- Condition Parameters: porcine atria myofibrils; Y75 value (75% activity relative to no compound)
Measure Name: Atrial EC25 (µM)

> print(dat)
                                   compound  measured
1  Cc1nccc2[nH]c(=O)c(CC(=O)N[C@@H](C)c3cnc(C#N)cn3)c(C)c12 [compound 487]    100.00
2  CCOc1ccc2[nH]c(=O)c(CC(=O)N[C@@H](C)c3ccc(F)cc3F)c(C)c2n1 [compound 414]      0.16
3  Cc1c(CC(=O)N[C@@H](C)c2ccc(F)cc2F)c(=O)[nH]c2ccc(C#N)nc12 [compound 281]      0.27
4  Cc1c(C(C)C(=O)N[C@@H](C)c2ccc(F)cc2F)c(=O)[nH]c2ccnc(C#N)c12 (some centres unmarked) [compound 363]      0.36
5  Cc1nccc2[nH]c(=O)c(CC(=O)N[C@@H](C)c3ncc(C#N)cn3)c(C)c12 [compound 483]      4.03

P = Cc1ccc([C@@H](C)NC(=O)Cc2c(C)c3c(C)nccc3[nH]c2=O)cc1 (single isomer, unassigned) [compound 301]
Q = Cc1cc(C#N)nnc1[C@@H](C)NC(=O)Cc1c(C)c2c(C)nccc2[nH]c1=O [compound 489]
R = Cc1nccc2[nH]c(=O)c(CC(=O)N[C@@H](C)c3ccc(F)cc3F)c(C)c12 [compound 433]
S = Cc1c(CC(=O)N[C@@H](C)c2ncc(C#N)cc2F)c(=O)[nH]c2ccc(OC(F)(F)F)nc12 [compound 456]
T = Cc1nc(C#N)cnc1[C@@H](C)NC(=O)Cc1c(C)c2c(C)nccc2[nH]c1=O [compound 491]
Returns the items ordered by Atrial EC25, from maximum to minimum. Rank them, then answer with their labels in that order. P, T, Q, S, R

a = Cc1nccc2[nH]c(=O)c(CC(=O)N[C@H](C)c3ccccc3O)c(C)c12 (single isomer, unassigned) [compound 320]
b = Cc1c(CC(=O)N[C@@H](C)c2ccc(F)cc2F)c(=O)[nH]c2ccnc(NC3CC3)c12 [compound 276]
// pick min by Atrial EC25: a , b The response must carry the label of the picked entry. b

* * *

- Tested on: Rabbit Psoas myofibrils (skeletal myosin ATPase)
- Assay Summary: Myofibril ATPase assay, rabbit psoas (skeletal) myofibrils
- Assay type: biochemical
- Condition Parameters: Y75 value (no ‡ mark); rabbit psoas myofibrils
Measure Name: Skeletal EC25 (µM)

> print(dat)
                                   compound  measured
1  Cc1c(CC(=O)N[C@@H](C)c2ncc(F)cc2F)c(=O)[nH]c2ccc(F)c(C(F)(F)F)c12      0.05
2  C[C@H](NC(=O)C1(c2cc3c(F)c(F)ccc3[nH]c2=O)CC1)c1ccc(C#N)cn1 (single isomer, unassigned)    100.00

P = Cc1c(CC(=O)N[C@@H](C)c2ccc(F)cc2F)c(=O)[nH]c2ccccc12
Q = Cc1cc(C#N)nnc1[C@@H](C)NC(=O)Cc1c(C)c2cc(F)ccc2[nH]c1=O
// pick min by Skeletal EC25: P , Q The response must carry the label of the picked entry. P

a = Cc1c(CC(=O)N[C@@H]2COc3cc(C#N)cnc32)c(=O)[nH]c2ccc(F)cc12
b = Cc1c(CC(=O)N[C@@H](C)c2ccc(F)cc2F)c(=O)[nH]c2ccc(F)c(Cl)c12
c = C[C@@H](NC(=O)Cc1c(C#N)c2cc(F)c(F)cc2[nH]c1=O)c1ccc(C#N)cn1 (single isomer, unassigned)
d = Cc1c(F)ccc2[nH]c(=O)c(C(F)(F)C(=O)N[C@H](C)c3ncc(C#N)cn3)c(C)c12 (single isomer, unassigned)
Returns the items ordered by Skeletal EC25, from maximum to minimum. Rank them, then answer with their labels in that order. c, a, d, b

I = C[C@@H](NC(=O)C1(c2cc3c(F)c(F)ccc3[nH]c2=O)CC1)c1ncc(C#N)cn1 (single isomer, unassigned)
II = Cc1nc([C@@H](C)NC(=O)Cc2c(C)c3c(C)c(F)ccc3[nH]c2=O)ncc1C#N (single isomer, unassigned)
III = Cc1c(CC(=O)N[C@@H](C)c2ccc(C#N)nn2)c(=O)[nH]c2ccc(F)c(C3CC3)c12 (single isomer, unassigned)
IV = Cc1c(CC(=O)N[C@H](C)c2ncc(C#N)cn2)c(=O)[nH]c2cccc(F)c12 (single isomer, unassigned)
Form: Sort by [Skeletal EC25] Order [ ascending ] Rank them, then answer with their labels in that order. II, III, I, IV
(II: 0.21 µM, III: 3.15 µM, I: 7.56 µM, IV: 100.00 µM)

I = Cc1c(CC(=O)N[C@@H](C)c2ccc(F)cc2F)c(=O)[nH]c2ccc(O)c(C#N)c12
II = N#Cc1cnc2c(n1)CC[C@H]2NC(=O)Cc1cc2cc(F)c(F)cc2[nH]c1=O
// pick min by Skeletal EC25: I , II The response must carry the label of the picked entry. I
(I: 7.24 µM, II: 100.00 µM)

Source: patent US12448369B2
